- assay.target: Human recombinant Acetyl-CoA Carboxylase 2 (ACC2) (Homo sapiens)
- Sequence (O00763 whole entry): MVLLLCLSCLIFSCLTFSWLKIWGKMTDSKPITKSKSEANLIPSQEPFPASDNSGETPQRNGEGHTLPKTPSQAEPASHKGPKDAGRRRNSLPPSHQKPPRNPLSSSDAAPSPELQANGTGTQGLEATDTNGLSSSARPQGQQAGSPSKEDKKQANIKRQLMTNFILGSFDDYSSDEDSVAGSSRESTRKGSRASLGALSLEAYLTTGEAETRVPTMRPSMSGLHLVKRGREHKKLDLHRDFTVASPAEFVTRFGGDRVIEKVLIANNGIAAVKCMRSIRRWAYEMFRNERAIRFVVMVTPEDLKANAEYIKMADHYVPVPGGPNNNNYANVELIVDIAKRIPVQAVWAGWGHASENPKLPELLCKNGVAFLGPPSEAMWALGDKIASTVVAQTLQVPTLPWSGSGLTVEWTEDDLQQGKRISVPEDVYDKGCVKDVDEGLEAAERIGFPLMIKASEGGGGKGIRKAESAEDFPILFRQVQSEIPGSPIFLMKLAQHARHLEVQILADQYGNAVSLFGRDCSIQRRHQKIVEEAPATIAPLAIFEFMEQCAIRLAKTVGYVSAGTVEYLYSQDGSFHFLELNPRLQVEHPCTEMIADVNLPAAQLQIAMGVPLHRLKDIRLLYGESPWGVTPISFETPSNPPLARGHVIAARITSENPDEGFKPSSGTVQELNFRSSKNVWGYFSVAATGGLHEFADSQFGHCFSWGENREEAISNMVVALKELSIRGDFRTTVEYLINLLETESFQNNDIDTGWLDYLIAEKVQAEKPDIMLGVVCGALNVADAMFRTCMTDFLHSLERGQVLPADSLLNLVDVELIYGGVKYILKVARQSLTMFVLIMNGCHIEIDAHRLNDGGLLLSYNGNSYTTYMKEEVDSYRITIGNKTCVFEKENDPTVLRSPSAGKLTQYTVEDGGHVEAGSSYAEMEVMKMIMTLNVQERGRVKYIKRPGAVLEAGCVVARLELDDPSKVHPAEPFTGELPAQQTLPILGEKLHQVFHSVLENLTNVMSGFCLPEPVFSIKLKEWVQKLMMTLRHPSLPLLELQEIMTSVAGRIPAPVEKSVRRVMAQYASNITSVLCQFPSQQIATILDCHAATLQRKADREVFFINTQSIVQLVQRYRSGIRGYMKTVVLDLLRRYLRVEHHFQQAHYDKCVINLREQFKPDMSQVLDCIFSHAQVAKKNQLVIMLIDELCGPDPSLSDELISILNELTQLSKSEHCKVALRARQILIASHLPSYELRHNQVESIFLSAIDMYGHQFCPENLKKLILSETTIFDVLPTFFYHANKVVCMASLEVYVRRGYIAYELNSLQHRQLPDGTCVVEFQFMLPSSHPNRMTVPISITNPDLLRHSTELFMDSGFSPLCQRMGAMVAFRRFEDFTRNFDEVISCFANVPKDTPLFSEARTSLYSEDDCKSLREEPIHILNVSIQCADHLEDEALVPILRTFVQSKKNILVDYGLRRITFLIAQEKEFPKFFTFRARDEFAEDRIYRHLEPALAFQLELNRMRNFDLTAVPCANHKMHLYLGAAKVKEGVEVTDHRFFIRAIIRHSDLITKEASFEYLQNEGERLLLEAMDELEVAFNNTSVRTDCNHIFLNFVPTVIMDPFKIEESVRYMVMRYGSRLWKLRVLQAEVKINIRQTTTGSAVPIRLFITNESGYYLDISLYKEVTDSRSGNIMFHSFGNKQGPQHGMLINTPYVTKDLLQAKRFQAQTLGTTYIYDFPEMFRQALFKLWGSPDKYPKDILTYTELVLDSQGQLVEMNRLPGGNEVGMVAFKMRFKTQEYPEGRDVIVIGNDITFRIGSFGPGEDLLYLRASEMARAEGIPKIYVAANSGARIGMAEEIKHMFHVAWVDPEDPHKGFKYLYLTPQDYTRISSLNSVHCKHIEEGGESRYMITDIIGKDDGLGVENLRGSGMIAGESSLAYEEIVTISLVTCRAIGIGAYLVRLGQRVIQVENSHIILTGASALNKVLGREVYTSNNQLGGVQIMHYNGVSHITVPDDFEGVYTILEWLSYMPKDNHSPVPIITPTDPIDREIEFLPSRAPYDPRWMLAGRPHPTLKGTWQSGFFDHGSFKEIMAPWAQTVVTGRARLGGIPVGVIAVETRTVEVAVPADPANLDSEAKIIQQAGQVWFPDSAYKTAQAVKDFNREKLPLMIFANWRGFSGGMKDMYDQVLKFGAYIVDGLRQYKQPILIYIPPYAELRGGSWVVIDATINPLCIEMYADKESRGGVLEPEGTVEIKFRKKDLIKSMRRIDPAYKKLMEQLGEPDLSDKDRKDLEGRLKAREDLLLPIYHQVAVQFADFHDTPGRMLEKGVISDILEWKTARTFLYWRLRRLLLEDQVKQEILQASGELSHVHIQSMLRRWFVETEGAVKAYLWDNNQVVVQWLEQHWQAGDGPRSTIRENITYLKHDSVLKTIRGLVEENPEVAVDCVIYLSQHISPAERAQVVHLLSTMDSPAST
- experiment: Assay Y: ACC2 inhibition, inorganic phosphate (Malachite Green)
- Format: biochemical
- applied.conditions: Assay Y: room temperature, 3 hr, 15 min preincubation
property: IC50 (µM)

> print(dat)
                                   molecule                              assay.target  property  numeric.result
1  COc1ccc(-c2cc(C(=O)NC[C@H]3CC[C@H](CNC(=O)OC(C)(C)C)CC3)ccn2)c(OC)c1 [Example 47]  Human recombinant Acetyl-CoA Carboxylase 2 (ACC2) (Homo sapiens)      IC50            9.85
2  CC(C)(C)OC(=O)NC[C@H]1CC[C@H](CN(CCc2ccccc2)S(=O)(=O)c2ccc3ccccc3c2)CC1 [Example 80]  Human recombinant Acetyl-CoA Carboxylase 2 (ACC2) (Homo sapiens)      IC50            3.01
3  NS(=O)(=O)c1ccc(-c2cc(C(=O)NC[C@H]3CC[C@H](CNC(=O)OC4CCOCC4)CC3)c3ccccc3n2)cc1 [Example 138]  Human recombinant Acetyl-CoA Carboxylase 2 (ACC2) (Homo sapiens)      IC50            0.71
